Every entry's value here was drawn from ChEMBL document CHEMBL1687920.

Target: Polyunsaturated fatty acid 5-lipoxygenase (Homo sapiens)
Experiment: Inhibition of 5-lipoxygenase in human neutrophils assessed as residual activity at 10 uM; values are per cent of control
# note: boundary value 20% maps to False; residual activity below it maps to True

structure_string=Oc1ccc(-c2ccc(-c3cn(CSc4ccccc4)nn3)cc2)cc1 assigned_category=False
structure_string=O=C(O)c1ccc(S(=O)(=O)n2cc(-c3ccc(-c4ccccc4COc4cccc5ccccc45)cc3)nn2)cc1 assigned_category=True
structure_string=Cc1ccccc1CCn1cc(-c2ccc(-c3ccc(N)cc3)cc2)nn1 assigned_category=False
structure_string=Oc1cccc(-c2ccc(-c3cn(CSc4ccccc4)nn3)cc2)c1 assigned_category=True
structure_string=CN(C)c1cccc2c(S(=O)(=O)Nc3ccc(-c4ccc(-c5cn(CCCc6ccccc6)nn5)cc4)cc3)cccc12 assigned_category=False

Just wondering, is residual activity of `O=Cc1ccc(-c2c(Cc3ccccc3)nnn2CSc2ccccc2)cc1` below 20%?
True

* * *

pIC50 overview
Molecular target: Polyunsaturated fatty acid 5-lipoxygenase (Homo sapiens, UniProt P09917)
Sequence (P09917 whole entry): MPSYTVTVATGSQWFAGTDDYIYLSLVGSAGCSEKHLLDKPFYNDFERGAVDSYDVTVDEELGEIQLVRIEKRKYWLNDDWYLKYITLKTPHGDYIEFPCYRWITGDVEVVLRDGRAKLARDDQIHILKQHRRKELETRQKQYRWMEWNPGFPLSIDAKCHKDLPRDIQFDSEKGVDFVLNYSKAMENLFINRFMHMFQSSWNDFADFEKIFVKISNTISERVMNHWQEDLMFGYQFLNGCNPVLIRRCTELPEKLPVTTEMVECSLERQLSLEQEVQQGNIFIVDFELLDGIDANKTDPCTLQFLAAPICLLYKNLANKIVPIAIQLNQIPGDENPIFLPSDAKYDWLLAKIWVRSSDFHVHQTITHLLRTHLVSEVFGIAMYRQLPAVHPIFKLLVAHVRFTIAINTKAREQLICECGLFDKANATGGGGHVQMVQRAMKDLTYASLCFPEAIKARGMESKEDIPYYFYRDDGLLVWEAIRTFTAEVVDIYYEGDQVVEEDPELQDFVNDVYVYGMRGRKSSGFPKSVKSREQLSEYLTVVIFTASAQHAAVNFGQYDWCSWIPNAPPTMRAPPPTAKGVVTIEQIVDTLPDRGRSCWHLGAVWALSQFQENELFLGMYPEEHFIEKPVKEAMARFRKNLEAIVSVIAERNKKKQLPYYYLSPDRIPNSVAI
Experiment: Inhibition of 5-lipoxygenase in human neutrophils
Bear in mind: pIC50 is minus log10 of a mol/L concentration; give just that figure.

structure_string=O=C(O)c1ccc(Cn2cc(-c3ccc(-c4ccccc4)cc3)nn2)c([N+](=O)[O-])c1 tested_on="Polyunsaturated fatty acid 5-lipoxygenase (Homo sapiens, UniProt P09917)" measurement=5.04

Turning to the following molecule.
Specify pIC50 for `Oc1ccc(-c2ccc(-c3cn(CSc4ccccc4)nn3)cc2)cc1` , system Polyunsaturated fatty acid 5-lipoxygenase (Homo sapiens, UniProt P09917).
6.05

* * *

Target: Prostaglandin E synthase / mPGES-1 (Homo sapiens) (UniProt O14684)
Sequence (O14684 whole entry, looked up): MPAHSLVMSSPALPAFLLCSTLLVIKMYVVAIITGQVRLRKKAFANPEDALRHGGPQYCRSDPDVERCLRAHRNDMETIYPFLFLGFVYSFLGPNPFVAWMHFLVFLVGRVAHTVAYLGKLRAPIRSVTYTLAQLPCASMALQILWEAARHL
Test: Inhibition of Prostaglandin E2 synthase-1 in IL1-beta stimulated microsomal fraction of human A549 cell assessed as residual activity at 30 uM
Settings: Microsome
# note: boundary value 90% maps to Not fulfilled; remaining activity below it maps to Fulfilled

Examples with answers:
structure_string=O=C(O)c1ccc(S(=O)(=O)n2cc(-c3ccc(-c4ccccc4COc4cccc5ccccc45)cc3)nn2)cc1 tested_on="Prostaglandin E synthase / mPGES-1 (Homo sapiens) (UniProt O14684)" assigned_category=Fulfilled
structure_string=Oc1ccc(-c2ccc(-c3cn(CCCc4ccccc4)nn3)cc2)cc1 tested_on="Prostaglandin E synthase / mPGES-1 (Homo sapiens) (UniProt O14684)" assigned_category=Fulfilled
structure_string=O=C(OCc1cn(CSc2ccccc2)nn1)c1ccccc1 tested_on="Prostaglandin E synthase / mPGES-1 (Homo sapiens) (UniProt O14684)" assigned_category=Fulfilled
structure_string=CN(C)c1cccc2c(S(=O)(=O)Nc3ccc(-c4ccc(-c5cn(CCCc6ccccc6)nn5)cc4)cc3)cccc12 tested_on="Prostaglandin E synthase / mPGES-1 (Homo sapiens) (UniProt O14684)" assigned_category=Fulfilled
structure_string=Cc1ccccc1CCn1cc(-c2ccc(-c3ccc(N)cc3)cc2)nn1 tested_on="Prostaglandin E synthase / mPGES-1 (Homo sapiens) (UniProt O14684)" assigned_category="Not fulfilled"

Just wondering, is remaining activity of `Oc1cccc(-c2ccc(-c3cn(CSc4ccccc4)nn3)cc2)c1` below 90%?
Fulfilled
